B1: Transcriptional repressor p66-beta, residues 415 to 455; numbered along this chain, Q8WXI9 (parent)
chain: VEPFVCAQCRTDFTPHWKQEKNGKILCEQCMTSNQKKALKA

variants of: B1; experiment: abundance fitness (aPCA) (normalised: wild type 0, dead -1); higher = more abundant; growth selection in yeast, the domain comes from the species named; conditions: Homo sapiens
I'd appreciate it if you could supply abundance fitness values for the items below.
A bare number is all that is needed in reply.

**Q:** I am curious: what abundance fitness value has been reported for "N34T" ?
**A:** -0.199

**Q:** Which abundance fitness reading was recorded for the variant "E2D" ?
**A:** 1.14

**Q:** Consider the variant "P3E" and give its measured abundance fitness.
**A:** 0.213

**Q:** Entry under review: "L39Q" . Reported abundance fitness?
**A:** -0.291

**Q:** Returns the measured abundance fitness for the input variant. Input: "C27H"
**A:** 0.039

**Q:** Could you tell me which abundance fitness is on file for "P15C" ?
**A:** 0.051

**Q:** Would you mind telling me what abundance fitness value was observed for "K18F" ?
**A:** -0.312

**Q:** Query (variant): "H16F" ; field requested: abundance fitness
**A:** -0.005

**Q:** GET /values?readout=abundance fitness&item= "Q19K"
**A:** 0.143

**Q:** Fill in: abundance fitness of "I25D" is ___
**A:** 0.714

**Q:** Entry under review: "E2K" . Reported abundance fitness?
**A:** -0.324

**Q:** Suppose we examine the variant "A7H" ; what abundance fitness value has been reported?
**A:** 0.534

**Q:** // abundance fitness lookup, key: "E28A"
**A:** -0.122

**Q:** What value of measured abundance fitness is listed for "V5T" ?
**A:** 0.041

**Q:** Name the reported abundance fitness value associated with the variant "Q29F"
**A:** -0.153

**Q:** Can you look up the measured abundance fitness of "P15R" for me?
**A:** -0.15

**Q:** Recorded abundance fitness of "Q29T" , please.
**A:** -0.253

**Q:** Any idea what its abundance fitness is? The variant is "E28I"
**A:** -0.418

**Q:** GET /values?readout=abundance fitness&item= "E28Q"
**A:** -0.222

**Q:** Tell me the measured abundance fitness of "D12N" , please.
**A:** 0.187

**Q:** Data request, read-out abundance fitness, for "V5W"
**A:** -0.405

**Q:** Recorded abundance fitness for "D12C" , please?
**A:** 0.141
